Target: Integrin alpha-V/beta-5 (Homo sapiens, UniProt P06756+P18084)
Sequence (P06756 31-889 limits assumed): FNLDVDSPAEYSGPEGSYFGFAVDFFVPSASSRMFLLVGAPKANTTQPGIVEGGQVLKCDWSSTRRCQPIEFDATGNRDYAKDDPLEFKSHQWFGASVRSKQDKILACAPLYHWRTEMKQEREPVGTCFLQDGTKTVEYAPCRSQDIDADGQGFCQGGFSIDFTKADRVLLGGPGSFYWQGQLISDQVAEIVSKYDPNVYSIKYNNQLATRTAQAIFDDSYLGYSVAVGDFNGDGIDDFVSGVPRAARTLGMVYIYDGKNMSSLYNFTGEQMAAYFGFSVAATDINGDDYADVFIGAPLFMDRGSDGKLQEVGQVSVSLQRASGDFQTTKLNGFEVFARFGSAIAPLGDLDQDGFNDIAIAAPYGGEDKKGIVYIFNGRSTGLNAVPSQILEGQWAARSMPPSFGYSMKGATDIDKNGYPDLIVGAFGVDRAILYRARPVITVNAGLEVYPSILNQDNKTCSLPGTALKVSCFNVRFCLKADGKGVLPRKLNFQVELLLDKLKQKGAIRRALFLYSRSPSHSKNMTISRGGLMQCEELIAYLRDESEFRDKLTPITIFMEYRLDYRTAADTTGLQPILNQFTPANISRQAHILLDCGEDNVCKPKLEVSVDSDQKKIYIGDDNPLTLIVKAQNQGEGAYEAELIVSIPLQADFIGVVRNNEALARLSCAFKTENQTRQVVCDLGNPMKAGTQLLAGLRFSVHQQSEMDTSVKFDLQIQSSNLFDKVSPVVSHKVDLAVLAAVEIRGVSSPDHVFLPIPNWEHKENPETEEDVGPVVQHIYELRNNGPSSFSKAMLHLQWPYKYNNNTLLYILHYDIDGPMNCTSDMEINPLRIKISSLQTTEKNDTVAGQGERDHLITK
Sequence (P06756 891-1048 limits assumed): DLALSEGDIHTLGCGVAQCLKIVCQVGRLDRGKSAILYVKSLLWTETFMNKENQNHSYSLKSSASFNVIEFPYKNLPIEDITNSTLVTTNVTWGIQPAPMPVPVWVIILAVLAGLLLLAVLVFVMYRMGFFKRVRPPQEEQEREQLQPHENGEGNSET
Sequence (P18084 24-799 limits assumed): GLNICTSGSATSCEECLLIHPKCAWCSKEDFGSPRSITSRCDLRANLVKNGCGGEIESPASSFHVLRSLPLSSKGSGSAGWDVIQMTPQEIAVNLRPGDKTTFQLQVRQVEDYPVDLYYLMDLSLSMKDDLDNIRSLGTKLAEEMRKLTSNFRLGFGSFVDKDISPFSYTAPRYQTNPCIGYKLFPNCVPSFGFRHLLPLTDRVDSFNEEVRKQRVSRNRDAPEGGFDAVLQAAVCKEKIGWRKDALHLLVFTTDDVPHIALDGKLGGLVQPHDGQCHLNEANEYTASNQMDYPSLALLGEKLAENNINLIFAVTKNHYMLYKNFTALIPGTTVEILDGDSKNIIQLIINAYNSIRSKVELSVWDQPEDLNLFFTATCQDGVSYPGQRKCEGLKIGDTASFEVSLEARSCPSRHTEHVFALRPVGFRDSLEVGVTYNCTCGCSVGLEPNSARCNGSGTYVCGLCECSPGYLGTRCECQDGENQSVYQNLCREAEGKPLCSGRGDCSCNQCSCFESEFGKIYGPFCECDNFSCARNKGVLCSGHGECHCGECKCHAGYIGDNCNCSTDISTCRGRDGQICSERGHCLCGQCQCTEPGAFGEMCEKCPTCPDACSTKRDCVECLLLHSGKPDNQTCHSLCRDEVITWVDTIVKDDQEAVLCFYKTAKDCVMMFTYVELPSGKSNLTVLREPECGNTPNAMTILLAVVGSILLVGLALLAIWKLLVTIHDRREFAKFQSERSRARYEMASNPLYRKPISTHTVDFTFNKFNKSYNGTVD
Assay: Binding affinity against integrin alpha V-beta5 in enzyme linked immunosorbent assay (ELISA)
pIC50: −log10 of the molar value. *1 amine or outer side, *2 acyl side, *3 side chain or, on linkers, in order; H or OH if unused. Where a SMILES comes first, the peptide text is derived from it. Bridges are numbered along the chain shown (N, C = ends). X1 = O=C(CC1(S[*:2])CCCCC1)[*:1]
QUANTITY KIND: pIC50

| MOLECULE | ASSAY VALUE |
| --- | --- |
| COc1ccc(C[C@@H]2NC(=O)[C@H](CC(=O)O)NC(=O)CNC(=O)[C@H](CCCN=C(N)N)NC(=O)[C@@H]3CCCN3C(=O)[C@H](CC(N)=O)NC(=O)CC3(CCCCC3)SSC[C@@H](C(N)=O)NC(=O)[C@H](CCCN=C(N)N)NC2=O)cc1 (NPRGDY(Me)RC-NH2; linker N-8 via X1) | 5.31 |
| CC[C@H](C)[C@@H]1NC(=O)[C@@H](NC(=O)[C@@H](N)CCCN=C(N)N)C2(CCCCC2)SSC[C@@H](C(=O)N[C@@H](CCCN=C(N)N)C(=O)O)NC(=O)[C@H](CCCN=C(N)N)NC(=O)[C@H](Cc2ccc(OC)cc2)NC(=O)[C@H](CC(=O)O)NC(=O)CNC(=O)[C@H](CCCN=C(N)N)NC(=O)[C@H](Cc2c[nH]cn2)NC1=O | 5.00 |

Origin of the recorded values: ChEMBL document CHEMBL1127482
